Target system: MAP4K2 (human) (UniProt Q12851)
Sequence (Q12851 whole entry, looked up): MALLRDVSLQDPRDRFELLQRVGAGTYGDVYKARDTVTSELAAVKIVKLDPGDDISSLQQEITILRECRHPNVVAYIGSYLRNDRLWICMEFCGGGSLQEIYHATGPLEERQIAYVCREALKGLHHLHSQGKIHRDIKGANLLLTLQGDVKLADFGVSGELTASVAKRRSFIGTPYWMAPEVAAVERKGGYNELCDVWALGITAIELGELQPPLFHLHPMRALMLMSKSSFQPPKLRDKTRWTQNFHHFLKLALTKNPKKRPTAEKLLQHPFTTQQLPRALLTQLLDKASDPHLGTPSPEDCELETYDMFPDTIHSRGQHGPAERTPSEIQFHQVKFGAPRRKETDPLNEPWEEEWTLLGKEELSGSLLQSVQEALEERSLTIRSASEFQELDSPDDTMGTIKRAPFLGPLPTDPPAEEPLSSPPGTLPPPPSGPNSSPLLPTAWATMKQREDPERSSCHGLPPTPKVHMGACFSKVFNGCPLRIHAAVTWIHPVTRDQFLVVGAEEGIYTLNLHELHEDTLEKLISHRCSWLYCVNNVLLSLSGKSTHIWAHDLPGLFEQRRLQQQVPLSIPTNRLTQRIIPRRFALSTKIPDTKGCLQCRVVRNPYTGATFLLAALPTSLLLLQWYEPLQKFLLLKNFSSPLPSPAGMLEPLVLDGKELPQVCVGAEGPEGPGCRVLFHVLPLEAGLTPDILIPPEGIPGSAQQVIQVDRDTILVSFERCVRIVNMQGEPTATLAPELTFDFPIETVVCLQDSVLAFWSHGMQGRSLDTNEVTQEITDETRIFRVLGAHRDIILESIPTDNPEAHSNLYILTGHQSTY
Test details: KINOMEscan competition binding
Experimental context: compound 10.0 µM
Quantity name: kinase still bound, per cent of control (%)
Only the number, expressed in %, is required.

COC(=O)Nc1ccc(-c2nc(N3CCOCC3)c3cnn(C4CCN(C(=O)OC)CC4)c3n2)cc1 ... 100
CCC(=O)N1CCN(c2ccc(-n3c(=O)ccc4cnc5ccc(-c6cnc7ccccc7c6)cc5c43)cc2C(F)(F)F)CC1 ... 35
CC(C)n1nc(-c2cc3cc(O)ccc3[nH]2)c2c(N)ncnc21 ... 0

## Task I'd like to know its kinase still bound, per cent of control. The compound in question is COc1ccc(-c2ccc3c(N4CCOCC4)nc(N4C[C@@H](C)O[C@@H](C)C4)nc3n2)cc1CO
## Result 86

* * *

Target system: UniProtKB Q02156
Sequence (Q02156 whole entry, looked up): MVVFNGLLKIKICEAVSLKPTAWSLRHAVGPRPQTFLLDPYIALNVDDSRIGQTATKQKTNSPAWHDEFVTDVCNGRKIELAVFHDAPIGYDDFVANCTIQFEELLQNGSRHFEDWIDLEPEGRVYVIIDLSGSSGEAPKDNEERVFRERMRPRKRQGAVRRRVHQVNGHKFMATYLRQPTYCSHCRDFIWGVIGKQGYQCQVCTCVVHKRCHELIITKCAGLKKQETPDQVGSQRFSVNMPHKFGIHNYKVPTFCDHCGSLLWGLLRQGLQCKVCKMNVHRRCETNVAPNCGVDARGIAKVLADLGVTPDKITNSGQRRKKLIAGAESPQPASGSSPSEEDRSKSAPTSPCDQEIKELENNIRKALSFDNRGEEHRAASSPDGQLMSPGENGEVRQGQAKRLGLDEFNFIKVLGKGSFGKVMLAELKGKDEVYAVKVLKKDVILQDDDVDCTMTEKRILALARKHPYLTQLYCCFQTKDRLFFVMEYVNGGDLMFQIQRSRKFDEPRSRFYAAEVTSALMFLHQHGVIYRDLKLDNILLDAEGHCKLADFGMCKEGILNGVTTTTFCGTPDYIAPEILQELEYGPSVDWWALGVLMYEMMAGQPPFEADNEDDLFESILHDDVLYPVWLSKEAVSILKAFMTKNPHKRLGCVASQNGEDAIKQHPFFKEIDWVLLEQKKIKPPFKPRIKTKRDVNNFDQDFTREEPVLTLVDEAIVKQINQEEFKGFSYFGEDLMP
Test details: KINOMEscan competition binding
Experimental context: compound 10.0 µM
A collection of molecules and their measured kinase still bound, per cent of control
Give just the numeric value; % need not be written.

CC(C)n1nc(-c2cc3cc(O)ccc3[nH]2)c2c(N)ncnc21 ... 0

## Task I am curious: what kinase still bound, per cent of control value has been reported for COc1ccc(-c2ccc3c(N4CCOCC4)nc(N4C[C@@H](C)O[C@@H](C)C4)nc3n2)cc1CO ?
## Result 82

## Task Field request: kinase still bound, per cent of control | item: CCC(=O)N1CCN(c2ccc(-n3c(=O)ccc4cnc5ccc(-c6cnc7ccccc7c6)cc5c43)cc2C(F)(F)F)CC1
## Result 86

## Task # kinase still bound, per cent of control lookup, item COC(=O)Nc1ccc(-c2nc(N3CCOCC3)c3cnn(C4CCN(C(=O)OC)CC4)c3n2)cc1
## Result 94

* * *

Target system: PRKCD (human)
Test details: KINOMEscan competition binding
Experimental context: compound 10.0 µM
Quick list: kinase still bound, per cent of control per entry.
Give the quantity in %, number only.

Examples from the recorded data:
COC(=O)Nc1ccc(-c2nc(N3CCOCC3)c3cnn(C4CCN(C(=O)OC)CC4)c3n2)cc1 ... 99
COc1ccc(-c2ccc3c(N4CCOCC4)nc(N4C[C@@H](C)O[C@@H](C)C4)nc3n2)cc1CO ... 100
CCC(=O)N1CCN(c2ccc(-n3c(=O)ccc4cnc5ccc(-c6cnc7ccccc7c6)cc5c43)cc2C(F)(F)F)CC1 ... 82

## Task // map CC(C)n1nc(-c2cc3cc(O)ccc3[nH]2)c2c(N)ncnc21 to recorded kinase still bound, per cent of control (system: PRKCD (human))
## Result 39

* * *

Target system: UniProtKB Q9UQM7
Sequence (Q9UQM7 whole entry, looked up): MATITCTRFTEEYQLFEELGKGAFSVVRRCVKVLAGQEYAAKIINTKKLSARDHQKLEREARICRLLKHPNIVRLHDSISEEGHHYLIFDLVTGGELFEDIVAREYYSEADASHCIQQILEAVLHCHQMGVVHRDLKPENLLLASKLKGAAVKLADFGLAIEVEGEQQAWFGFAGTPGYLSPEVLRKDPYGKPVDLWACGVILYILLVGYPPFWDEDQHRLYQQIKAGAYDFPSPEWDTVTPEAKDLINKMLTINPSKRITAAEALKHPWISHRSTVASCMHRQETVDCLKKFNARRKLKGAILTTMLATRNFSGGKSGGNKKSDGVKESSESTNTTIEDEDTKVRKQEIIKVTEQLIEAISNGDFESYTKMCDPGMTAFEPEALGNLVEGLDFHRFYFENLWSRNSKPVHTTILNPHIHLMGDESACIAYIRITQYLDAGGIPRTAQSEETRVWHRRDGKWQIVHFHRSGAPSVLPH
Test details: KINOMEscan competition binding
Experimental context: compound 10.0 µM
# kinase still bound, per cent of control annotations
Dear colleague, please return just the value in %, with no unit written.

Worked examples follow.
CCC(=O)N1CCN(c2ccc(-n3c(=O)ccc4cnc5ccc(-c6cnc7ccccc7c6)cc5c43)cc2C(F)(F)F)CC1 ... 93
COc1ccc(-c2ccc3c(N4CCOCC4)nc(N4C[C@@H](C)O[C@@H](C)C4)nc3n2)cc1CO ... 87
COC(=O)Nc1ccc(-c2nc(N3CCOCC3)c3cnn(C4CCN(C(=O)OC)CC4)c3n2)cc1 ... 95

API: the following record is the query input.
## Task Recorded kinase still bound, per cent of control of CC(C)n1nc(-c2cc3cc(O)ccc3[nH]2)c2c(N)ncnc21 , please.
## Result 53

* * *

kinase still bound, per cent of control for assorted compounds
Target system: NEK11 (human)
Test details: KINOMEscan competition binding
Experimental context: compound 10.0 µM
Remember to put the unit after the number in your answer.

# count of solved cases: 3
COC(=O)Nc1ccc(-c2nc(N3CCOCC3)c3cnn(C4CCN(C(=O)OC)CC4)c3n2)cc1 ... 85%
CCC(=O)N1CCN(c2ccc(-n3c(=O)ccc4cnc5ccc(-c6cnc7ccccc7c6)cc5c43)cc2C(F)(F)F)CC1 ... 65%
CC(C)n1nc(-c2cc3cc(O)ccc3[nH]2)c2c(N)ncnc21 ... 74%

## Task # get_value(readout='kinase still bound, per cent of control', item= COc1ccc(-c2ccc3c(N4CCOCC4)nc(N4C[C@@H](C)O[C@@H](C)C4)nc3n2)cc1CO )
## Result 72%

* * *

Target system: RAF1 (human) (UniProt P04049)
Sequence (P04049 whole entry, looked up): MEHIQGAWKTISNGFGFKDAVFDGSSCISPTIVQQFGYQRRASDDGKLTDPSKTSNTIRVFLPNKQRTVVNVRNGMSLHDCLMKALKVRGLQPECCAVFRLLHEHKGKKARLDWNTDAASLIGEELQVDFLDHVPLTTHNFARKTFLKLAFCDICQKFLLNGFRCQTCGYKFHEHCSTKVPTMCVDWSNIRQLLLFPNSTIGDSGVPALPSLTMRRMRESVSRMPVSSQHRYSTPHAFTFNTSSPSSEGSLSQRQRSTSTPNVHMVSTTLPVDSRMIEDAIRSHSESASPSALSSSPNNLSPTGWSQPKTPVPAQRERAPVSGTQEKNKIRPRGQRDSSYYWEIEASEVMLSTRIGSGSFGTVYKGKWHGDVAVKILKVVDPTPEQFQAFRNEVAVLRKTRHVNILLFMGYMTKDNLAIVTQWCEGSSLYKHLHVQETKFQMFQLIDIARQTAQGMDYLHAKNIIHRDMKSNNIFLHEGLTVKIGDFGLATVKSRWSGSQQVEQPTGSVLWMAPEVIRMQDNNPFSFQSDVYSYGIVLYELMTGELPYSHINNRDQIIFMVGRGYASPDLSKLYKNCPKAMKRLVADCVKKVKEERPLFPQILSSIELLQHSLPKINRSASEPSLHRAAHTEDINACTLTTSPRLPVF
Test details: KINOMEscan competition binding
Experimental context: compound 10.0 µM
Quantity name: kinase still bound, per cent of control (%)
Form entry: value (%) — number only.

COc1ccc(-c2ccc3c(N4CCOCC4)nc(N4C[C@@H](C)O[C@@H](C)C4)nc3n2)cc1CO ... 100
CC(C)n1nc(-c2cc3cc(O)ccc3[nH]2)c2c(N)ncnc21 ... 41
COC(=O)Nc1ccc(-c2nc(N3CCOCC3)c3cnn(C4CCN(C(=O)OC)CC4)c3n2)cc1 ... 91

# ---- query compound ----
## Task // returns reported kinase still bound, per cent of control for input CCC(=O)N1CCN(c2ccc(-n3c(=O)ccc4cnc5ccc(-c6cnc7ccccc7c6)cc5c43)cc2C(F)(F)F)CC1
## Result 48

* * *

Reported kinase still bound, per cent of control values are given for each entry in this list.
Target system: SGK3 (human) (UniProt Q96BR1)
Sequence (Q96BR1 whole entry, looked up): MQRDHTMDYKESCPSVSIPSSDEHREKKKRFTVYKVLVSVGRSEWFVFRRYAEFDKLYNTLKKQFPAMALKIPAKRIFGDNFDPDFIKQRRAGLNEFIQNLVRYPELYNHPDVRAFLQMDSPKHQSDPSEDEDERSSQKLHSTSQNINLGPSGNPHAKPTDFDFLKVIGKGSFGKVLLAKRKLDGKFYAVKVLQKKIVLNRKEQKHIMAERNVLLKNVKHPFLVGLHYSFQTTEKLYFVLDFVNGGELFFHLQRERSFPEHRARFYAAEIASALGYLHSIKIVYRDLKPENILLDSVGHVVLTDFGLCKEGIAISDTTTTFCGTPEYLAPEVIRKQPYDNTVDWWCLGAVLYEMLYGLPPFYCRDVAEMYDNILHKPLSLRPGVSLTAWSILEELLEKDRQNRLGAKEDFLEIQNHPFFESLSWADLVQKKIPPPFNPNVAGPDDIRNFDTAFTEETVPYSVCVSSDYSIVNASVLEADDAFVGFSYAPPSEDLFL
Test details: KINOMEscan competition binding
Experimental context: compound 10.0 µM
Report the figure in % without appending any unit label.

A selection of reference data follows.
COC(=O)Nc1ccc(-c2nc(N3CCOCC3)c3cnn(C4CCN(C(=O)OC)CC4)c3n2)cc1 ... 99
CCC(=O)N1CCN(c2ccc(-n3c(=O)ccc4cnc5ccc(-c6cnc7ccccc7c6)cc5c43)cc2C(F)(F)F)CC1 ... 100
COc1ccc(-c2ccc3c(N4CCOCC4)nc(N4C[C@@H](C)O[C@@H](C)C4)nc3n2)cc1CO ... 100

Lab note: next compound to report on.
## Task Entry CC(C)n1nc(-c2cc3cc(O)ccc3[nH]2)c2c(N)ncnc21 : reported kinase still bound, per cent of control = ?
## Result 81

* * *

Target system: FGFR1 (human) (UniProt P11362)
Sequence (P11362 whole entry, looked up): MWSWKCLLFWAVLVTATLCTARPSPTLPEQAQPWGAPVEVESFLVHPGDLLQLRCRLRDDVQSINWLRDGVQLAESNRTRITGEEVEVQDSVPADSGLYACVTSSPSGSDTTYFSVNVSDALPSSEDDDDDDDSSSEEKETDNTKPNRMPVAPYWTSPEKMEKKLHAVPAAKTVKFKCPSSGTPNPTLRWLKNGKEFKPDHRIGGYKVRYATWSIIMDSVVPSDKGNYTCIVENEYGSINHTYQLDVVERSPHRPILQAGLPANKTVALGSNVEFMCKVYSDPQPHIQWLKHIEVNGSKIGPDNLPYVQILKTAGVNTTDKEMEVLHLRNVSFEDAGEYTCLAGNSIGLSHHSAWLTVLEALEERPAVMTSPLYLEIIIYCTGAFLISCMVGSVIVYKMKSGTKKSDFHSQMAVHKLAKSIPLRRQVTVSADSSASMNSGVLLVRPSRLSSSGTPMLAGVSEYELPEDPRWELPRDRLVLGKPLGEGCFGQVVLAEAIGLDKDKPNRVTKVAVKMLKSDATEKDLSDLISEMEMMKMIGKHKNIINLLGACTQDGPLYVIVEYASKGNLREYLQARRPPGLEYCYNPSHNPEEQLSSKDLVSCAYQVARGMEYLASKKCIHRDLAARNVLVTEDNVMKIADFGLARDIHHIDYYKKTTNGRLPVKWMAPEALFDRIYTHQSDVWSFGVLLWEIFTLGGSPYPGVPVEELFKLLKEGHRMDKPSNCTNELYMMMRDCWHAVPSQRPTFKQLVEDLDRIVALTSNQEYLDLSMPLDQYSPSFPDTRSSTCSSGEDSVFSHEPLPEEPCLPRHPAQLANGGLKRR
Experimental context: compound 1.0 µM
Quantity name: per cent of control
Hi, when you answer, please include the unit after the number. Thanks!

// below: answered compounds
COc1ccc(-c2ccc3c(N4CCOCC4)nc(N4C[C@@H](C)O[C@@H](C)C4)nc3n2)cc1CO ... 102%
COC(=O)Nc1ccc(-c2nc(N3CCOCC3)c3cnn(C4CCN(C(=O)OC)CC4)c3n2)cc1 ... 95%
CCC(=O)N1CCN(c2ccc(-n3c(=O)ccc4cnc5ccc(-c6cnc7ccccc7c6)cc5c43)cc2C(F)(F)F)CC1 ... 110%

As a next step, examine the compound that follows.
## Task What does the data say about its per cent of control? Entry: CC(C)n1nc(-c2cc3cc(O)ccc3[nH]2)c2c(N)ncnc21
## Result 14%

* * *

Target system: IKBKB (human)
Experimental context: compound 1.0 µM
Reported per cent of control values are given for each entry in this list.
Respond with the bare value in %.

The examples below pair each entry with its known result.
COc1ccc(-c2ccc3c(N4CCOCC4)nc(N4C[C@@H](C)O[C@@H](C)C4)nc3n2)cc1CO ... 104
CCC(=O)N1CCN(c2ccc(-n3c(=O)ccc4cnc5ccc(-c6cnc7ccccc7c6)cc5c43)cc2C(F)(F)F)CC1 ... 109
CC(C)n1nc(-c2cc3cc(O)ccc3[nH]2)c2c(N)ncnc21 ... 85

// below: per cent of control requested for another molecule
## Task What measured per cent of control goes with COC(=O)Nc1ccc(-c2nc(N3CCOCC3)c3cnn(C4CCN(C(=O)OC)CC4)c3n2)cc1 ?
## Result 97

* * *

Target system: SYK (human) (UniProt P43405)
Test details: KINOMEscan competition binding
Experimental context: compound 10.0 µM
kinase still bound, per cent of control overview

Sample records with kinase still bound, per cent of control:
CC(C)n1nc(-c2cc3cc(O)ccc3[nH]2)c2c(N)ncnc21 ... 100%
COc1ccc(-c2ccc3c(N4CCOCC4)nc(N4C[C@@H](C)O[C@@H](C)C4)nc3n2)cc1CO ... 100%
CCC(=O)N1CCN(c2ccc(-n3c(=O)ccc4cnc5ccc(-c6cnc7ccccc7c6)cc5c43)cc2C(F)(F)F)CC1 ... 78%

From here, focus on the item given below.
## Task Entry under review: COC(=O)Nc1ccc(-c2nc(N3CCOCC3)c3cnn(C4CCN(C(=O)OC)CC4)c3n2)cc1 . Reported kinase still bound, per cent of control?
## Result 83%

* * *

Target system: PAK6 (human)
Test details: KINOMEscan competition binding
Experimental context: compound 10.0 µM
Parameter: kinase still bound, per cent of control. Scope: all listed entries.
Use % as the unit, but write only the number.

CC(C)n1nc(-c2cc3cc(O)ccc3[nH]2)c2c(N)ncnc21 ... 23
CCC(=O)N1CCN(c2ccc(-n3c(=O)ccc4cnc5ccc(-c6cnc7ccccc7c6)cc5c43)cc2C(F)(F)F)CC1 ... 77
COc1ccc(-c2ccc3c(N4CCOCC4)nc(N4C[C@@H](C)O[C@@H](C)C4)nc3n2)cc1CO ... 90

Okay, now this molecule:
## Task I am curious: what kinase still bound, per cent of control value has been reported for COC(=O)Nc1ccc(-c2nc(N3CCOCC3)c3cnn(C4CCN(C(=O)OC)CC4)c3n2)cc1 ?
## Result 100

Origin of the recorded values: the kinase profiling compilation of Christmann-Franck et al. (2016)
